Source listed as patent US20230357447A1.

Overview of recorded Phage binding ELISA Backgroud signal for various substances
- Test system: anti-CD28 scFv
- assayProtocol: Phage binding ELISA (panning) of clonal phage on anti-CD28 scFv, with or without CD28 soluble protein
- assayConditions: clonal phage supernatant; background signal
- Experimental: Clonal phage were harvested as crude supernatants and screened via standard enzyme linked immunosorbent assays (ELISAs). […] Prior to the addition of clonal phage, wells were incubated with blocking buffer and CD28 soluble protein or blocking buffer alone. Without washing or aspirating, clonal phage supernatants were then added to the wells and incubated for a short time. Wells were then washed followed by detection of bound phage using a horse radish peroxidase conjugated anti-M13 antibody. […]
quantity: Phage binding ELISA Backgroud signal

{"substance": "Phage-299 (MDWCPIYLWAECFN)", "endpointResult": 0.078}
{"substance": "Phage-345 (MDFCPRFLWHECFN)", "endpointResult": 0.063}
{"substance": "Phage-285 (MDWCPRDLWAMCFA)", "endpointResult": 0.071}
{"substance": "Phage-319 (MSWCPRDLWHLCFF)", "endpointResult": 0.077}
{"substance": "Phage-328 (MDWCPRALWDHCFN)", "endpointResult": 0.323}
{"substance": "Phage-315 (MDWCPTYLWHVCFS)", "endpointResult": 0.089}
{"substance": "Phage-51 (MDWCPMDLWDYCFN)", "endpointResult": 0.071}
{"substance": "Phage-67 (MNWCPTALWHVCFN)", "endpointResult": 0.067}
{"substance": "Phage-271 (MDWCPTSFWNRCFH)", "endpointResult": 0.102}
{"substance": "Phage-320 (MDWCPTYLWNECFN)", "endpointResult": 0.120}
{"substance": "Phage-244 (MDWCPRYLWHECFD)", "endpointResult": 0.071}
{"substance": "Phage-374 (MAWCPLDLWDKCFY)", "endpointResult": 0.079}
{"substance": "Phage-304 (MDWCPKFLWDECFA)", "endpointResult": 0.311}
{"substance": "Phage-174 (MDWCPKHLWNECFN)", "endpointResult": 0.063}
{"substance": "Phage-369 (MHWCPRDLWYECFA)", "endpointResult": 0.072}
{"substance": "Phage-199 (MDWCPRNMWAQCFA)", "endpointResult": 0.102}
{"substance": "Phage-207 (MDWCPRAMWHECFY)", "endpointResult": 0.069}
{"substance": "Phage-161 (MDWCPRHLWDQCFA)", "endpointResult": 0.150}
{"substance": "Phage-284 (MDWCPRFLWHVCFS)", "endpointResult": 2.091}
{"substance": "Phage-204 (MDWCPRHMWNVCFS)", "endpointResult": 0.067}
{"substance": "Phage-453 (MDWCPSDYWYVCFA)", "endpointResult": 0.065}
{"substance": "Phage-76 (MDWCPRYLWSDCFA)", "endpointResult": 0.084}
{"substance": "Phage-251 (MDWCPRFMWSECFS)", "endpointResult": 0.092}
{"substance": "Phage-367 (MDWCPSFLWYECFN)", "endpointResult": 0.063}
{"substance": "Phage-182 (MHWCPRSLWNECYF)", "endpointResult": 0.168}
{"substance": "Phage-330 (MDWCPRFLWDVCFN)", "endpointResult": 0.100}
{"substance": "Phage-265 (MDWCPRFMWDLCFA)", "endpointResult": 0.270}
{"substance": "Phage-194 (MDWCPSDMWHECYA)", "endpointResult": 0.062}
{"substance": "Phage-348 (MAWCPWYLWDECFN)", "endpointResult": 0.200}
{"substance": "Phage-294 (MDWCPRSLWDYCFA)", "endpointResult": 0.115}
